settings: in n-propyl acetate, 288.24 K
measured.quantity: solubility (mole fraction)

Q) Answer with reported solubility (mole fraction) of `C[C@H]1[C@H](OC(=O)CCC(=O)O)O[C@@H]2O[C@@]3(C)CC[C@H]4[C@H](C)CC[C@@H]1[C@@]24OO3`
A) 0.0176

* * *

details: in isopropyl acetate, 308.16 K
measured.quantity: solubility (mole fraction)
Give a plain numeric answer without units written out.

Q) Answer with reported solubility (mole fraction) of `C[C@H]1[C@H](OC(=O)CCC(=O)O)O[C@@H]2O[C@@]3(C)CC[C@H]4[C@H](C)CC[C@@H]1[C@@]24OO3`
A) 0.0206

* * *

details: in n-butanol, 303.05 K
measured.quantity: solubility (mole fraction)
Give a plain numeric answer without units written out.

Q) Answer with reported solubility (mole fraction) of `C[C@H]1[C@H](OC(=O)CCC(=O)O)O[C@@H]2O[C@@]3(C)CC[C@H]4[C@H](C)CC[C@@H]1[C@@]24OO3`
A) 0.0181
